For each record, write down the corresponding T/C.
Tested on: P388 leukemia ip, CD2F1 mice, survival T/C
Experiment: NCI In Vivo Anticancer Drug Screen. Data for tumor model P388 Leukemia (intraperitoneal) in CD2F1 (CDF1) mice
Details: endpoint: median survival time; dose: 240.0 mg/kg/injection; schedule: Q01DX005 (ip); vehicle: saline with Tween-80; higher = longer survival
Inconclusive results and toxic doses are left out.

[in] Any idea what its T/C is? The compound is COc1ccc(C(C)c2cc(OC)c(OC)cc2OC)cc1 (centres undefined)
[out] 105 % of control

[in] CC(C(/C=N/NC(N)=S)=N/NC(N)=S)N1C(=O)c2ccccc2C1=O (centres undefined) , same question.
[out] 88 % of control

[in] // next record `O=C(OCOC(=O)N1CCOCC1)N1CCOCC1`
[out] 94 % of control

[in] What do you have for `COC(=O)c1c(-c2ccc(OC)cc2)c(-c2ccc(OC)cc2)[nH]c(=O)c1C#N` ?
[out] 99 % of control

[in] Now the same for CCC(c1ccc(C(C)=O)c(O)c1)C(CC)c1ccc(C(C)=O)c(O)c1 (centres undefined)
[out] 88 % of control

[in] What do you have for `CC(C)C(Nc1nncs1)Nc1nncs1` ?
[out] 118 % of control

[in] Entry to check: `COc1ccc(-c2cn(-c3ccc(I)cc3)c3ncnc(N)c23)cc1`
[out] 90 % of control

[in] Next up: `Nc1ncnc2nc(-c3ccc(C[P+](c4ccccc4)(c4ccccc4)c4ccccc4)cc3)[nH]c12`
[out] 95 % of control

[in] Also, `CCOC(=O)C(C(=O)OCC)(C(=O)C(F)(F)C(F)(F)C(F)(F)C(F)(F)C(=O)C(C(=O)OCC)(C(=O)OCC)c1ccccc1)c1ccccc1` please.
[out] 89 % of control

---

Tested on: P388 leukemia ip, CD2F1 mice, survival T/C
Assay: NCI In Vivo Anticancer Drug Screen. Data for tumor model P388 Leukemia (intraperitoneal) in CD2F1 (CDF1) mice
Settings: endpoint: median survival time; dose: 12.5 mg/kg/injection; schedule: Q01DX009 (ip); vehicle: saline; higher = longer survival
Procedure: The antitumor activity of compounds was measured in mice bearing transplantable tumors. Survival or tumor size were measured and the results are expressed as the measurement made in the treated group (T) divided by the measurement made in the vehicle treated control group (C). The tumor model used in this assay is P388 Leukemia (intraperitoneal) in CD2F1 (CDF1) mice
Inconclusive results and toxic doses are left out.
Kindly state T/C for each of the entries shown.

[in] // returns reported T/C for input `Cc1ccc(C(=O)CC[N+](C)(C)C)cc1`
[out] 109 % of control

[in] Follow-up item: `CC(C)(C)C(=O)C=C(C(F)(F)F)C(F)(F)F`
[out] 86 % of control

[in] Field entry: `CCCCCCCCC[N+]1(CC)CCCC1`
[out] 117 % of control

---

Test system: P388 leukemia ip, CD2F1 mice, survival T/C
Assay: NCI In Vivo Anticancer Drug Screen. Data for tumor model P388 Leukemia (intraperitoneal) in CD2F1 (CDF1) mice
Conditions: endpoint: median survival time; dose: 25.0 mg/kg/injection; schedule: Q01DX005 (ip); vehicle: Klucel (hydroxypropylcellulose) (HPC); higher = longer survival
Inconclusive results and toxic doses are left out.
Hi there, I'd appreciate the recorded T/C for every entry that follows.

[in] Give the measured T/C of O=C(/C=C/c1ccccc1)OCC1=C[C@@H](O)[C@@H]2C=CO[C@@H](OC3OC(CO)C(O)C(O)C3O)[C@H]12 (stereo partly specified) .
[out] 93 % of control

[in] Also need O=C1/C(=C\O)C2CCC3CCC4CC1C342 (stereo unspecified) , thanks.
[out] 103 % of control

[in] How about this compound: `CC(=O)Nc1ccccc1CO`
[out] 97 % of control

[in] Now try O=C(OCC1OC(n2cc(C(F)(F)F)c(=O)[nH]c2=O)CC1O)c1ccc([N+](=O)[O-])cc1 (stereo unspecified) .
[out] 115 % of control

[in] Now this one: `CC(=O)Oc1c(OC(C)=O)c(C=O)c2c(OC(C)=O)c(-c3c(C)cc4c(C(C)C)c(OC(C)=O)c(OC(C)=O)c(C=O)c4c3OC(C)=O)c(C)cc2c1C(C)C`
[out] 107 % of control

[in] Also check `CC1(C)C(=O)NC(=O)c2ccccc21`
[out] 107 % of control

---

Tested on: P388 leukemia ip, CD2F1 mice, survival T/C
Test: NCI In Vivo Anticancer Drug Screen. Data for tumor model P388 Leukemia (intraperitoneal) in CD2F1 (CDF1) mice
Details: endpoint: median survival time; dose: 200.0 mg/kg/injection; schedule: Q01DX009 (ip); vehicle: saline; higher = longer survival
Inconclusive results and toxic doses are left out.
For each of the compounds below, state its T/C.

[in] Request the reported T/C associated with `Cc1ncn[nH]1`
[out] 106 % of control

[in] Also, `CC(C)OP(=S)(S)OC(C)C` please.
[out] 97 % of control

[in] Then this compound: `Clc1ccc(-c2nc(CSc3ccccn3)cs2)cc1`
[out] 105 % of control

[in] Another compound to look at: `COc1ccc(NC2=CC(=S)NC(C)(C)C2)cc1`
[out] 104 % of control

[in] # iterate: Nc1ccc2c(c1)C1C(C3C2C2(Cl)C(Cl)=C(Cl)C3(Cl)C2(Cl)Cl)C2(Cl)C(Cl)=C(Cl)C1(Cl)C2(Cl)Cl (stereo not given)
[out] 98 % of control

[in] Consider next the compound `Cc1ccc(S(=O)(=O)C(Sc2ccccc2)=S=NC23CC4CC(CC(C4)C2)C3)cc1` in the same way.
[out] 97 % of control

[in] Lookup `Cc1cc(CCO)n[nH]1`
[out] 100 % of control

[in] What do you have for Cc1ccc(C(CC(=O)O)C(N)C(=O)O)cc1 (stereo not given) ?
[out] 95 % of control

[in] Now the same for `CCCCCCC[CH2][Sn]([CH2]CCCCCCC)([CH2]CCCCCCC)[O]C(C)=O`
[out] 94 % of control

[in] What do you get for `CCOC(CNN)OCC` ?
[out] 91 % of control

[in] And the next one, `O=Nc1ccc(Cl)cc1C(=O)c1ccccc1` ?
[out] 97 % of control

[in] Similarly, `Cc1cc2nnnn2c2ccccc12` ?
[out] 95 % of control

[in] Next compound: `O=C(O)C1Oc2cc3ccccc3cc2O1`
[out] 97 % of control

[in] Next: `CCCCCCC(/C=C/c1ccc(Cl)c(Cl)c1)=N\NC(=O)C(N)=O`
[out] 110 % of control

[in] Now consider `Cc1cccc(NC(=O)NC2CCCCC2)c1` .
[out] 93 % of control

---

Test system: P388 leukemia ip, CD2F1 mice, survival T/C
Test: NCI In Vivo Anticancer Drug Screen. Data for tumor model P388 Leukemia (intraperitoneal) in CD2F1 (CDF1) mice
Settings: endpoint: median survival time; dose: 200.0 mg/kg/injection; schedule: Q01DX005 (ip); vehicle: Klucel (hydroxypropylcellulose) (HPC); higher = longer survival
Toxic doses and inconclusive results are not listed.
Exercise: state measured T/C for each of the compounds provided.

[in] Provide the documented T/C with P388 leukemia ip, CD2F1 mice, survival T/C as the system for `C[CH2][Sn]1([Cl])[O]CCNCC[O]1`
[out] 122 % of control

[in] What do you have for `O=C(O)c1cccc(-c2nn[nH]n2)c1` ?
[out] 102 % of control

[in] Next: `Cc1ccc(C=C2c3ccccc3C(=O)c3ccccc32)cc1`
[out] 105 % of control

[in] Input `OC1(Cc2ccc(F)cc2)CCCCCC1`
[out] 103 % of control

[in] Next compound up: `c1ccc2nc(N3CCCC3)c(N3CCCCCC3)nc2c1`
[out] 107 % of control

[in] Next: `COc1c(O)ccc(C2=Cc3ccc(O)cc3OC2)c1OC`
[out] 106 % of control

[in] Now the same for `CC(C)N1CSC(=S)NCCNC(=S)SC1`
[out] 110 % of control

[in] Then this compound: C=C(C)C1Cc2cc(C(C)=O)c(O)c(OC)c2O1 (centres undefined)
[out] 99 % of control

[in] Please answer likewise for `O=c1[nH]c(=O)c2nc3cc(Cl)ccc3nc2[nH]1`
[out] 99 % of control

[in] Same lookup for `Cc1snnc1-c1ccccc1` , please.
[out] 96 % of control

[in] Next record, please: `O=C(O)CNC(=O)/C=C/c1ccc(O)c(O)c1`
[out] 100 % of control

[in] Same thing, different compound: `O=[N+]([O-])c1ccc(SC2=NCCCN2C2CCCCC2)c(Cl)c1`
[out] 103 % of control

[in] What about CCOc1cc2c(cc1C(C)c1ccc(OCc3ccccc3)cc1)OCO2 (centres undefined) ?
[out] 91 % of control

[in] Try the compound CC1CCC2=C(C1)c1ccc(O)cc1OC2(C)C (centres undefined)
[out] 93 % of control

[in] Then what about the compound `C/C(=C\c1ccc([N+](=O)[O-])cc1)C(=O)N1CCCCC1` ?
[out] 96 % of control

[in] Now this one: `CC(=O)Nc1ccccc1CO`
[out] 100 % of control

[in] Follow-up item: `Clc1ccc(CSc2nnc3c(n2)[nH]c2ccccc23)cc1`
[out] 98 % of control

[in] Another compound: `Cc1cc(=O)oc2c1c(=O)[nH]n2-c1ccccc1`
[out] 86 % of control

[in] What do we get for COc1cc2c(cc1OC)[C@H](C(=O)O)C(c1ccc3c(c1)OCO3)N(C)C2=O (some centres undefined) ?
[out] 88 % of control

[in] Note, next up: `COc1ccc(N=Nc2c(-c3cccs3)nn(C(N)=S)c2C(F)(F)F)cc1`
[out] 97 % of control

[in] Subsequent entry: CC(=O)OCC1OC(n2cnc3c(Cl)nc(N)nc32)C(OC(C)=O)C1OC(C)=O (centres undefined)
[out] 105 % of control

[in] Then this compound: `Cc1ccc(S(=O)(=O)NC(=O)Nn2c(C)nc3ccccc3c2=O)cc1`
[out] 106 % of control

[in] Here is the next compound: `Cc1ccc(/C=C/c2ccc([N+](=O)[O-])cc2)cc1`
[out] 93 % of control

[in] // query: CC1=C2CCC3(C)C(=C2OC1=O)C(C)=C(Cl)C(Cl)C3Cl (centres undefined)
[out] 115 % of control
